- procedure-details: Stability of liquid pharmaceutical forms (peptide 0.2 %, benzalkonium chloride 0.01 %, water) during storage; single and total impurities
- Assay type: physicochemical
- test-parameters: stored for 1 month at +4° C.; solution 0.2 mass % peptide, 0.01 mass % benzalkonium chloride
Non-standard residues stand in square brackets, D forms with d. No end group written: not given here. Hyp = O=C(O)[C@@H]1C[C@@H](O)CN1
assay-readout: Total impurities (%)

- Thr-Lys-Hyp-Arg-Hyp-Phe (TK[Hyp]R[Hyp]F) [hexapeptide of the invention containing hydroxyproline]: 0.15
- Thr-Lys-Hyp-Arg-Hyp-Gly-Hyp (TK[Hyp]R[Hyp]G[Hyp]) [peptide according to the invention containing hydroxyproline]: 0.12
- Thr-Lys-Pro-Arg-Pro-Gly-Pro (TKPRPGP; not fully specified; printed as Thr-Lys-Pro-Arg-Pro-Gly-Pro) [heptopeptide “Selank”, a synthetic analogue of the endogenous peptide tuftsin, reference compound]: 0.17

----------
// reported Total impurities per item
- procedure-details: Stability of liquid pharmaceutical forms (peptide 0.2 %, benzalkonium chloride 0.01 %, water) during storage; single and total impurities
- Assay type: physicochemical
- test-parameters: stored for 12 months at +4° C.
Non-standard residues stand in square brackets, D forms with d. No end group written: not given here. Hyp = O=C(O)[C@@H]1C[C@@H](O)CN1
assay-readout: Total impurities (%)

* Thr-Lys-Pro-Arg-Pro (TKPRP; not fully specified; printed as Thr-Lys-Pro-Arg-Pro) [pentapeptide described in RU2507212, comparison peptide, reference compound] | 1.5
* Thr-Lys-Hyp-Arg-Hyp-Phe (TK[Hyp]R[Hyp]F) [hexapeptide of the invention containing hydroxyproline] | 0.3
* Thr-Lys-Pro-Arg-Pro-Phe (TKPRPF; not fully specified; printed as Thr-Lys-Pro-Arg-Pro-Phe) [hexapeptide described in RU2507212, comparison peptide, reference compound] | 1.3
